Molecular target: human GPRC5D (G protein-coupled receptor class C group 5 member D), on cells (human, UniProt Q9NZD1 1-345)
Sequence (Q9NZD1 whole entry): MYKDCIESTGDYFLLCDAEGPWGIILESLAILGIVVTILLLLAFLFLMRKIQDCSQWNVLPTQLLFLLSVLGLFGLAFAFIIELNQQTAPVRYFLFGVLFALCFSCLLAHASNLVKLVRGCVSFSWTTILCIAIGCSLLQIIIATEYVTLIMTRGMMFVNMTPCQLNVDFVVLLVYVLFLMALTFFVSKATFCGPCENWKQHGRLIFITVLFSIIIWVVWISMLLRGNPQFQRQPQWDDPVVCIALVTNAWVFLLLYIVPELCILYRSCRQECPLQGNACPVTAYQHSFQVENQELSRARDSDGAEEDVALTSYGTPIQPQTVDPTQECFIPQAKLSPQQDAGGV
Assay: cell-based or functional assay
Please go through the items and note down their ADCC reporter (Jurkat-NFAT-luc-CD16-V158 luciferase), Top.
Numbers only.

Consider the reported ADCC reporter (Jurkat-NFAT-luc-CD16-V158 luciferase), Top for these binders:
humanized antibody 6E97 (hz) (antibody, V domains shown) VH: QVQLVQSGAEVKKPGASVKVSCKASGYTFPYYVIHWVRQAPGQGLEWIGYINPYNAGTKYNEKFKGRATLTSDKSTSTAYMELSSLRSEDTAVYYCARGGVRRYFDYWGQGTTVTVSS VL: DIQLTQSPSTLSASVGDRVTITCRASQDIGSNLNWLQQKPGGTIKRLISATSSLDSGVPSRFSGSRSGSEYTLTISSLQPDDFATYYCLQYATFPYTFGQGTRLEIKR
32.8
humanized antibody 9D7 (hz) (antibody, V domains shown) VH: QVQLQESGPGLVKPSETLSLTCTVSGYSITSDYAWNWIRQPPGKGLEWMGYISYSGSATYSPSLKSRITISRDTSKNQFSLKLSSVTAADTAVYYCARGGIAGRGRWGAMDYWGQGTTVTVSS VL: DIQMTQSPSSLSASVGDRVTITCKASQNVGTNVAWYQQKPGQSPKALIYSASYRDSGVPDRFSGSGSGTDFTLTISSLQPEDFATYYCQQYKSYPLTFGQGTRLEIKR
24.5

Next binder, ADCC reporter (Jurkat-NFAT-luc-CD16-V158 luciferase), Top to be filled in.
Look up ADCC reporter (Jurkat-NFAT-luc-CD16-V158 luciferase), Top: humanized antibody 24F5 (hz) (antibody, V domains shown) VH: QVQLVQSGAEVKKPGASVKVSCKASGYTFPYYVMHWVRQAPGQGLEWIGYINPYNDGTKYNEKFKGRATLTSDKSTSTAYMELSSLRSEDTAVYYCARGGVRRYFDYWGQGTTVTVSS VL: DIQMTQSPSTLSASVGDRVTITCRASQDIGSNLNWLQQKPGGTIKRLIYATSSLDSGVPSRFSGSRSGSEYTLTISSLQPDDFATYYCLQYATFPYTFGQGTRLEIKR
25.4
